system: DMS-114; assay: NCI tumour cell line growth inhibition, 48 h
Calls of active or inactive are those of the source. No stated cut-off is given here; in the data, active = GI50 up to about 1.1 µM and inactive = higher.
// one of class 1 (active), class 0 (inactive), no free text

The following compounds have reported results that may help.
| compound | measurement target | class label |
| --- | --- | --- |
| CCN(CC)CCCNc1nccc2c(C)c3c(cc12)c1cnccc1n3C | DMS-114 | class 1 |
| C=CCNC(=O)N(CCC)CCCCC(NC(C)=O)C(=O)NCc1ccccc1 (stereo unspecified) | DMS-114 | class 0 |
| CCOC(=O)c1cc2c(cn1)[nH]c1cccc(N)c12 | DMS-114 | class 0 |
| CCC1(OC(=O)CN)C(=O)OCc2c1cc1n(c2=O)Cc2cc3ccccc3nc2-1 (stereo unspecified) | DMS-114 | class 1 |
| Cn1ncc2cc3c(Nc4ccc(Cl)cc4)cccc3nc21 | DMS-114 | class 0 |

Problem: Which outcome was assigned to Cc1ccc(NC(=O)CCC(=O)C2CC(=O)CC/C2=N\NC(=O)c2cc3ccccc3cc2O)cc1C (stereo unspecified) in this test?
Solution: class 0

Problem: Which outcome was assigned to COc1cc(C2C(=O)C(Cl)N2Nc2nc(C)cc(O)n2)cc(OC)c1OC (stereo unspecified) in this test?
Solution: class 0

Problem: Which outcome was assigned to CS/C(=N\C(=S)Nc1ccccc1)Nc1ccccc1 in this test?
Solution: class 1

Problem: Which outcome was assigned to O=C1OC(=O)C2C3CCC(O3)C12 (stereo unspecified) in this test?
Solution: class 0

Problem: Which outcome was assigned to CCn1c(=O)nc2n(-c3ccccc3)c3ccccc3nc-2c1=O in this test?
Solution: class 0

Problem: Which outcome was assigned to NC1CCCCC1 in this test?
Solution: class 0

Problem: Which outcome was assigned to Cc1ccc(S(=O)(=O)N/N=C(\c2nc3ccc([N+](=O)[O-])cc3[nH]c2=O)C(O)c2ccc([N+](=O)[O-])cc2)cc1 (stereo unspecified) in this test?
Solution: class 0

Problem: Which outcome was assigned to O=C1C(CO)=C(CO)C(=O)c2c(O)ccc(O)c21 in this test?
Solution: class 1

Problem: Which outcome was assigned to O=C(c1ccc(Cl)cc1)c1ccc(OCC(=O)N2CCN(c3ccccc3)CC2)cc1 in this test?
Solution: class 0

Problem: Which outcome was assigned to Cc1cc2c(cc1C)[n+]([O-])c(-c1c(Cl)cccc1Cl)c(N)[n+]2[O-] in this test?
Solution: class 0

Problem: Which outcome was assigned to COC(=O)c1cc(C)n(NC(=O)OC(C)(C)C)c1C in this test?
Solution: class 0

Problem: Which outcome was assigned to O=C1C=C(c2c(O)ccc3ccccc23)c2cc(O)ccc2C1=O in this test?
Solution: class 0

Problem: Which outcome was assigned to CSCCC(C(=O)O)N(CC1(O)OCC(O)C(O)C1O)N=O (stereo unspecified) in this test?
Solution: class 0

Problem: Which outcome was assigned to O=C1C=CC=C/C1=C1/SC(c2ccccc2)=C(O)N1c1ccccc1 in this test?
Solution: class 0

Problem: Which outcome was assigned to Nc1n[nH]c(N)n1 in this test?
Solution: class 0

Problem: Which outcome was assigned to CN(C)c1ccc(/C=C2\C[N+](C)(C)C/C(=C\c3ccc(N(C)C)cc3)C2=O)cc1 in this test?
Solution: class 0

Problem: Which outcome was assigned to NC(=O)c1csc(C2OC(COP(=O)(O)CP(=O)(O)OCC3OC(n4cnc5c(N)ncnc54)C(O)C3O)C(O)C2O)n1 (stereo unspecified) in this test?
Solution: class 0

Hello, the source for this data is ChEMBL document CHEMBL1201862, in case you need it.
